Test: activity coefficient (dimensionless); of the first substance listed, at infinite dilution; xn = mol fraction of the nth substance listed
Settings: 343.1 K; 101 kPa; Liquid; Chromatography; x1 = 0
I'd appreciate it if you could supply activity coefficient values for the items below.

Q. Would you mind telling me what activity coefficient value was observed for C#CCCCC [1-hexyne] + CCCCCCCC[N+]1(C)CCCC1.O=S(=O)([N-]S(=O)(=O)C(F)(F)F)C(F)(F)F ?
A. 1.34

Q. Would you mind telling me what activity coefficient value was observed for CCC(C)=O [butanone] + CCCCCC[N+]1(C)CCCC1.O=S(=O)([N-]S(=O)(=O)C(F)(F)F)C(F)(F)F ?
A. 0.39

Q. Would you mind telling me what activity coefficient value was observed for CC(C)O [propan-2-ol] + CCCCCC[N+]1(C)CCCC1.O=S(=O)([N-]S(=O)(=O)C(F)(F)F)C(F)(F)F ?
A. 1.4

Please state activity coefficient for every molecule in the list that follows.
1. C[N+](=O)[O-] [nitromethane] + CCCCCC[N+]1(C)CCCC1.O=S(=O)([N-]S(=O)(=O)C(F)(F)F)C(F)(F)F
2. c1ccncc1 [pyridine] + CCCCCCCC[N+]1(C)CCCC1.O=S(=O)([N-]S(=O)(=O)C(F)(F)F)C(F)(F)F
3. C=CCCCC [hex-1-ene] + CCCCCC[N+]1(C)CCCC1.O=S(=O)([N-]S(=O)(=O)C(F)(F)F)C(F)(F)F
4. CCC(=O)CC [pentan-3-one] + CCCCCCCC[N+]1(C)CCCC1.O=S(=O)([N-]S(=O)(=O)C(F)(F)F)C(F)(F)F

A.
1. 0.56
2. 0.41
3. 4.44
4. 0.44

###

Experiment: activity coefficient (dimensionless); of the first substance listed, at infinite dilution; xn = mol fraction of the nth substance listed
Conditions: 342.8 K; 101 kPa; Liquid; Chromatography; x1 = 0
readout_kind: activity coefficient
Numbers only.

Examples with answers:
Q. Would you mind telling me what activity coefficient value was observed for CCCCCC [hexane] + CCCCCCCCCC[N+]1(C)CCCC1.O=S(=O)([N-]S(=O)(=O)C(F)(F)F)C(F)(F)F ?
A. 3.68

Q. Would you mind telling me what activity coefficient value was observed for Cc1cccc(C)c1 [1,3-dimethylbenzene] + CCCCCCCCCC[N+]1(C)CCCC1.O=S(=O)([N-]S(=O)(=O)C(F)(F)F)C(F)(F)F ?
A. 1.03

Q. Would you mind telling me what activity coefficient value was observed for CCC[N+](=O)[O-] [1-nitropropane] + CCCCCCCCCC[N+]1(C)CCCC1.O=S(=O)([N-]S(=O)(=O)C(F)(F)F)C(F)(F)F ?
A. 0.6

Q. Would you mind telling me what activity coefficient value was observed for CCCCCCCCCCC [undecane] + CCCCCCCCCC[N+]1(C)CCCC1.O=S(=O)([N-]S(=O)(=O)C(F)(F)F)C(F)(F)F ?
A. 10.7

Q. Would you mind telling me what activity coefficient value was observed for CCc1ccccc1 [ethylbenzene] + CCCCCCCCCC[N+]1(C)CCCC1.O=S(=O)([N-]S(=O)(=O)C(F)(F)F)C(F)(F)F ?
A. 1.06

Please state activity coefficient for every compound in the list that follows.
1. CC#N [acetonitrile] + CCCCCCCCCC[N+]1(C)CCCC1.O=S(=O)([N-]S(=O)(=O)C(F)(F)F)C(F)(F)F
2. CC(C)OC(C)C [diisopropyl ether] + CCCCCCCCCC[N+]1(C)CCCC1.O=S(=O)([N-]S(=O)(=O)C(F)(F)F)C(F)(F)F

A.
0.49
2.26
